test system: Oryza sativa; test: Toxicity in direct seeded Oryza sativa (rice) plants assessed as phytotoxicity scores at 0.5 kg ai/ha measured 2 weeks post compound treatment; format: organism-based; conditions: in vivo, 336 h
Recorded Metric: Activity
# print the numeric value only

# Compound, Activity
rows = [
    ("CN(C[C@]1(c2cccc(Cl)n2)CO1)S(=O)(=O)c1ccc2c(c1)CCCC2", 1),
    ("CN(C[C@@]1(c2cccc(Cl)n2)CO1)S(=O)(=O)c1ccc2c(c1)CCCC2", 0),
    ("Cc1cc(S(=O)(=O)N(C)C[C@]2(c3cccc(Cl)n3)CO2)ccc1Cl", 10),
    ("CN(CC1(c2cccc(Cl)n2)CO1)S(=O)(=O)c1ccc2c(c1)CCCC2 (racemic)", 0),
    ("Cc1cc(S(=O)(=O)N(C)C[C@@]2(c3cccc(Cl)n3)CO2)ccc1Cl", 0),
]

// next entry
# value lookup — system Oryza sativa, readout Activity, item Cc1cc(S(=O)(=O)N(C)CC2(c3cccc(Cl)n3)CO2)ccc1Cl (racemic)
10

----------
tested on: Schoenoplectiella juncoides; assay: Herbicidal activity against Schoenoplectiella juncoides exposed to compound at 1.5 to two-leaf stage assessed as herbicidal rate scores at 0.5 kg ai/ha measured 2 weeks post compound treatment by pot test; format: functional
Listed here: items and their measured Activity.

# Compound, Result
records = [
    ("CN(C[C@@]1(c2cccc(Cl)n2)CO1)S(=O)(=O)c1ccc2c(c1)CCCC2", 0),
    ("Cc1cc(S(=O)(=O)N(C)CC2(c3cccc(Cl)n3)CO2)ccc1Cl (racemic)", 4),
    ("CN(C[C@]1(c2cccc(Cl)n2)CO1)S(=O)(=O)c1ccc2c(c1)CCCC2", 3),
    ("Cc1cc(S(=O)(=O)N(C)C[C@]2(c3cccc(Cl)n3)CO2)ccc1Cl", 7),
    ("Cc1cc(S(=O)(=O)N(C)C[C@@]2(c3cccc(Cl)n3)CO2)ccc1Cl", 0),
]

// next entry
Tell me the measured Activity of CN(CC1(c2cccc(Cl)n2)CO1)S(=O)(=O)c1ccc2c(c1)CCCC2 (racemic) , please.
2

----------
Listed here: items and their measured Activity.
tested on: Echinochloa oryzicola; experiment: Herbicidal activity against Echinochloa oryzicola exposed to compound at 1.5 to two-leaf stage assessed as herbicidal rate scores at 0.5 kg ai/ha measured 2 weeks post compound treatment by pot test; assay type: functional
# print the numeric value only

# Compound, Activity
rows = [
    ("CN(CC1(c2cccc(Cl)n2)CO1)S(=O)(=O)c1ccc2c(c1)CCCC2 (racemic)", 8),
]

# value lookup — system Echinochloa oryzicola, readout Activity, item CN(C[C@]1(c2cccc(Cl)n2)CO1)S(=O)(=O)c1ccc2c(c1)CCCC2
9

# value lookup — system Echinochloa oryzicola, readout Activity, item Cc1cc(S(=O)(=O)N(C)C[C@]2(c3cccc(Cl)n3)CO2)ccc1Cl
10

# value lookup — system Echinochloa oryzicola, readout Activity, item CN(C[C@@]1(c2cccc(Cl)n2)CO1)S(=O)(=O)c1ccc2c(c1)CCCC2
0

# value lookup — system Echinochloa oryzicola, readout Activity, item Cc1cc(S(=O)(=O)N(C)C[C@@]2(c3cccc(Cl)n3)CO2)ccc1Cl
1

# value lookup — system Echinochloa oryzicola, readout Activity, item Cc1cc(S(=O)(=O)N(C)CC2(c3cccc(Cl)n3)CO2)ccc1Cl (racemic)
10

----------
test system: Cyperus serotinus; assay: Herbicidal activity against Cyperus serotinus exposed to compound at 1.5 to 2 leaf stage assessed as herbicidal rate scores at 0.5 kg ai/ha measured 2 weeks post compound treatment by pot test; assay type: functional
API: label(entry) gives true if the entry's Activity is strictly smaller than 8; on equality or larger values it gives false.

# Molecule, Target System, Class Assignment
rows = [
    ("Cc1cc(S(=O)(=O)N(C)C[C@]2(c3cccc(Cl)n3)CO2)ccc1Cl", "Cyperus serotinus", "false"),
    ("CN(C[C@@]1(c2cccc(Cl)n2)CO1)S(=O)(=O)c1ccc2c(c1)CCCC2", "Cyperus serotinus", "true"),
    ("Cc1cc(S(=O)(=O)N(C)CC2(c3cccc(Cl)n3)CO2)ccc1Cl (racemic)", "Cyperus serotinus", "false"),
]

Say whether its Activity is strictly beneath 8. Entry: CN(C[C@]1(c2cccc(Cl)n2)CO1)S(=O)(=O)c1ccc2c(c1)CCCC2
false

Say whether its Activity is strictly beneath 8. Entry: Cc1cc(S(=O)(=O)N(C)C[C@@]2(c3cccc(Cl)n3)CO2)ccc1Cl
true
